Target: T1, CD25 (R&D systems cat. #223-2A/CF) (UniProt P01589 22-213, limits assumed)
T1 construct: Bought soluble protein
T1 sequence (looked up): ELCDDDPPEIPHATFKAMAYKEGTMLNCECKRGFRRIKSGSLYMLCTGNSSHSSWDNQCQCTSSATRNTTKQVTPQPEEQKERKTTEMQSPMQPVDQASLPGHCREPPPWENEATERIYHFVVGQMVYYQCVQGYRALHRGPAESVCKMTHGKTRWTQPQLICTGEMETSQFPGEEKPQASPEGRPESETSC
Assay: Biacore (SPR); antibody captured on Protein A, CD25 injected
// Fold change in Kd vs. H1L1 lookup, one value per entry
Quick note: give the figure in fold, leave out the unit.

These recorded examples may help you get a feel for the data.
>>> number("anti-CD25 H1.4L1 (antibody, V domains shown, Single variant in the anti-CD25 H1L1 background; also called VH K73T single variant) VH: QVQLVQSGAEVKKPGASVKVSCKASGYTFTSYRMHWVRQAPGQGLEWMGYINPSTGYTEYNQKFQGRVTITADTSISTAYMELSRLRSDDTAVYYCARGGGVFDYWGQGTLVTVSS VL: QIVLTQSPATLSLSPGERATLSCRASSSISYMHWFQQKPGQSPQLLIYTTSNLASGVPARFSGSGSGTDYTLTISSLQPEDFAVYYCHQRSTYPLTFGSGTKLEIK")
1.1
>>> number("anti-CD25 H1.1L1 (antibody, V domains shown, Single variant in the anti-CD25 H1L1 background; also called VH A71R single variant) VH: QVQLVQSGAEVKKPGASVKVSCKASGYTFTSYRMHWVRQAPGQGLEWMGYINPSTGYTEYNQKFQGRVTITRDKSISTAYMELSRLRSDDTAVYYCARGGGVFDYWGQGTLVTVSS VL: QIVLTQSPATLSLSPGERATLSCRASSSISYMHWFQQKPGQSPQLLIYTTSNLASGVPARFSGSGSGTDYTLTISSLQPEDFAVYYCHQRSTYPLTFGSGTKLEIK")
2

Attention now turns to another entry.
Give the reported Fold change in Kd vs. H1L1 for this binder. anti-CD25 H1L1.7 (antibody, V domains shown, Single variant in the anti-CD25 H1L1 background; also called VL Q79E single variant) VH: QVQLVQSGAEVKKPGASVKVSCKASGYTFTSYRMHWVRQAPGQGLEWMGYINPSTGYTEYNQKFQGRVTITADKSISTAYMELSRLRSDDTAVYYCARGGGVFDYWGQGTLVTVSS VL: QIVLTQSPATLSLSPGERATLSCRASSSISYMHWFQQKPGQSPQLLIYTTSNLASGVPARFSGSGSGTDYTLTISSLEPEDFAVYYCHQRSTYPLTFGSGTKLEIK 1.2

Numbers sourced from patent US20100004431A1.
